- Test system: Muscle tissue
- assay-explanation: Biodistribution in overnight fasted Sprague-Dawley rat muscle organic fraction at 0.7 to 1.4 MBq, iv at 30 mins by Folch-type extraction method
- Format: ADME, organism-based
- measurement-conditions: in vivo, 0.5 h
Recorded Drug uptake, one value per entry.
measurement-label: Drug uptake (%)

smiles-data: O=C(O)CCSCCCCCCCCCCCC[18F]
quantitative-readout: 33.56

smiles-data: O=C(O)CCSCCCC/C=C\CCCCCCCC[18F]
quantitative-readout: 21.75

smiles-data: O=C(O)CCSCCCCCCCCCCCCCC[18F]
quantitative-readout: 38.77

smiles-data: O=C(O)CCCCSCCCCCCCCCCCC[18F]
quantitative-readout: 44.55

* * *

- Tested on: Blood
- assay-explanation: Drug uptake in overnight fasted Sprague-Dawley rat blood at 0.7 to 1.4 MBq, iv at 30 mins
- Format: ADME, organism-based
- measurement-conditions: in vivo, 0.5 h
Listing of recorded Drug uptake by entry.

smiles-data: O=C(O)CCSCCCCCCCCCCCCCC[18F]
tested-on: Blood
Drug uptake [%IDKg/g]: 0.0392

smiles-data: O=C(O)CCCCSCCCCCCCCCCCC[18F]
tested-on: Blood
Drug uptake [%IDKg/g]: 0.029

smiles-data: O=C(O)CCSCCCCCCCCCCCC[18F]
tested-on: Blood
Drug uptake [%IDKg/g]: 0.07

smiles-data: O=C(O)CCSCCCC/C=C\CCCCCCCC[18F]
tested-on: Blood
Drug uptake [%IDKg/g]: 0.0441

* * *

- System: Heart
- assay-explanation: Biodistribution in overnight fasted Sprague-Dawley rat heart organic fraction at 0.7 to 1.4 MBq, iv preincubated with POCA for 2 hrs before compound administration measured at 120 mins post treatment by Folch-type extraction method
- Type: ADME, organism-based
- measurement-conditions: in vivo
Measured Drug uptake values are reported for all entries that follow.

smiles-data: O=C(O)CCCCSCCCCCCCCCCCC[18F]
Drug uptake / %: 74.2
--
smiles-data: O=C(O)CCSCCCCCCCCCCCCCC[18F]
Drug uptake / %: 74.91
--
smiles-data: O=C(O)CCSCCCC/C=C\CCCCCCCC[18F]
Drug uptake / %: 66.66
--
smiles-data: O=C(O)CCSCCCCCCCCCCCC[18F]
Drug uptake / %: 67.98

* * *

- Test system: Muscle tissue
- assay-explanation: Biodistribution in overnight fasted Sprague-Dawley rat muscle aqueous fraction at 0.7 to 1.4 MBq, iv preincubated with POCA for 2 hrs before compound administration measured at 30 mins post treatment by Folch-type extraction method
- Format: ADME, organism-based
- measurement-conditions: in vivo, 0.5 h
Each entry below carries its reported Drug uptake.
measurement-label: Drug uptake (%)

smiles-data: O=C(O)CCSCCCCCCCCCCCC[18F]
measurement-label: Drug uptake
quantitative-readout: 25.13
//
smiles-data: O=C(O)CCCCSCCCCCCCCCCCC[18F]
measurement-label: Drug uptake
quantitative-readout: 7.7
//
smiles-data: O=C(O)CCSCCCCCCCCCCCCCC[18F]
measurement-label: Drug uptake
quantitative-readout: 25.8
//
smiles-data: O=C(O)CCSCCCC/C=C\CCCCCCCC[18F]
measurement-label: Drug uptake
quantitative-readout: 24.06

* * *

- Tested on: Bone
- assay-explanation: Drug uptake in overnight fasted Sprague-Dawley rat bone at 0.7 to 1.4 MBq, iv at 30 mins
- Format: ADME, organism-based, Bone element
- measurement-conditions: in vivo, 0.5 h
# Drug uptake listing for each entry below

smiles-data: O=C(O)CCCCSCCCCCCCCCCCC[18F]
Drug uptake, %IDKg/g: 0.1171

smiles-data: O=C(O)CCSCCCCCCCCCCCCCC[18F]
Drug uptake, %IDKg/g: 0.2309

smiles-data: O=C(O)CCSCCCC/C=C\CCCCCCCC[18F]
Drug uptake, %IDKg/g: 0.1531

smiles-data: O=C(O)CCSCCCCCCCCCCCC[18F]
Drug uptake, %IDKg/g: 0.235

* * *

Listed below: Drug uptake values for each entry.
- Test system: Liver
- assay-explanation: Biodistribution in overnight fasted Sprague-Dawley rat liver aqueous fraction at 0.7 to 1.4 MBq, iv at 30 mins by Folch-type extraction method
- Assay type: ADME, organism-based
- measurement-conditions: in vivo, 0.5 h

smiles-data: O=C(O)CCCCSCCCCCCCCCCCC[18F]
Drug uptake: 9.65%
//
smiles-data: O=C(O)CCSCCCCCCCCCCCCCC[18F]
Drug uptake: 15.36%
//
smiles-data: O=C(O)CCSCCCCCCCCCCCC[18F]
Drug uptake: 13.52%
//
smiles-data: O=C(O)CCSCCCC/C=C\CCCCCCCC[18F]
Drug uptake: 8.43%

* * *

- System: Liver
- assay-explanation: Biodistribution in overnight fasted Sprague-Dawley rat liver aqueous fraction at 0.7 to 1.4 MBq, iv at 120 mins by Folch-type extraction method
- Format: ADME, organism-based
- measurement-conditions: in vivo, 2 h
# Drug uptake annotations
measurement-label: Drug uptake (%)

smiles-data: O=C(O)CCSCCCC/C=C\CCCCCCCC[18F]
tested-on: Liver
quantitative-readout: 5.68
--
smiles-data: O=C(O)CCSCCCCCCCCCCCCCC[18F]
tested-on: Liver
quantitative-readout: 8.18
--
smiles-data: O=C(O)CCSCCCCCCCCCCCC[18F]
tested-on: Liver
quantitative-readout: 5.32
--
smiles-data: O=C(O)CCCCSCCCCCCCCCCCC[18F]
tested-on: Liver
quantitative-readout: 10.15

* * *

List of Drug uptake values.
- System: Blood
- assay-explanation: Drug uptake in overnight fasted Sprague-Dawley rat blood at 0.7 to 1.4 MBq, iv preincubated with POCA for 2 hrs before compound administration measured at 30 mins post treatment
- Format: ADME, organism-based
- measurement-conditions: in vivo, 0.5 h
measurement-label: Drug uptake (%IDKg/g)

smiles-data: O=C(O)CCCCSCCCCCCCCCCCC[18F]
tested-on: Blood
measurement-label: Drug uptake
unit-descriptor: %IDKg/g
quantitative-readout: 0.051
--
smiles-data: O=C(O)CCSCCCCCCCCCCCC[18F]
tested-on: Blood
measurement-label: Drug uptake
unit-descriptor: %IDKg/g
quantitative-readout: 0.0633
--
smiles-data: O=C(O)CCSCCCCCCCCCCCCCC[18F]
tested-on: Blood
measurement-label: Drug uptake
unit-descriptor: %IDKg/g
quantitative-readout: 0.051
--
smiles-data: O=C(O)CCSCCCC/C=C\CCCCCCCC[18F]
tested-on: Blood
measurement-label: Drug uptake
unit-descriptor: %IDKg/g
quantitative-readout: 0.0606

* * *

Collected Drug uptake values appear next to each entry.
- System: Liver
- assay-explanation: Biodistribution in overnight fasted Sprague-Dawley rat liver pellet fraction at 0.7 to 1.4 MBq, iv preincubated with POCA for 2 hrs before compound administration measured at 30 mins post treatment by Folch-type extraction method
- Type: ADME, organism-based
- measurement-conditions: in vivo, 0.5 h

smiles-data: O=C(O)CCSCCCCCCCCCCCCCC[18F]
tested-on: Liver
Drug uptake / %: 16.53
--
smiles-data: O=C(O)CCCCSCCCCCCCCCCCC[18F]
tested-on: Liver
Drug uptake / %: 34.35
--
smiles-data: O=C(O)CCSCCCCCCCCCCCC[18F]
tested-on: Liver
Drug uptake / %: 38.07
--
smiles-data: O=C(O)CCSCCCC/C=C\CCCCCCCC[18F]
tested-on: Liver
Drug uptake / %: 24.88

* * *

- Test system: Liver
- assay-explanation: Biodistribution in overnight fasted Sprague-Dawley rat liver aqueous fraction at 0.7 to 1.4 MBq, iv preincubated with POCA for 2 hrs before compound administration measured at 120 mins post treatment by Folch-type extraction method
- Type: ADME, organism-based
- measurement-conditions: in vivo

smiles-data: O=C(O)CCSCCCCCCCCCCCCCC[18F]
Drug uptake [%]: 10.23
//
smiles-data: O=C(O)CCCCSCCCCCCCCCCCC[18F]
Drug uptake [%]: 7.45
//
smiles-data: O=C(O)CCSCCCC/C=C\CCCCCCCC[18F]
Drug uptake [%]: 8.1
//
smiles-data: O=C(O)CCSCCCCCCCCCCCC[18F]
Drug uptake [%]: 11.52

* * *

- Tested on: Muscle tissue
- assay-explanation: Drug uptake in overnight fasted Sprague-Dawley rat muscle at 0.7 to 1.4 MBq, iv at 120 mins
- Format: ADME, organism-based
- measurement-conditions: in vivo, 2 h

smiles-data: O=C(O)CCSCCCCCCCCCCCC[18F]
Drug uptake / %IDKg/g: 0.0109

smiles-data: O=C(O)CCCCSCCCCCCCCCCCC[18F]
Drug uptake / %IDKg/g: 0.0263

smiles-data: O=C(O)CCSCCCCCCCCCCCCCC[18F]
Drug uptake / %IDKg/g: 0.0181

smiles-data: O=C(O)CCSCCCC/C=C\CCCCCCCC[18F]
Drug uptake / %IDKg/g: 0.0171

* * *

Recorded Drug uptake, one value per entry.
- Tested on: Liver
- assay-explanation: Drug uptake in overnight fasted Sprague-Dawley rat liver at 0.7 to 1.4 MBq, iv at 30 mins
- Assay type: ADME, organism-based
- measurement-conditions: in vivo, 0.5 h

smiles-data: O=C(O)CCSCCCCCCCCCCCC[18F]
Drug uptake, %IDKg/g: 0.899
--
smiles-data: O=C(O)CCSCCCC/C=C\CCCCCCCC[18F]
Drug uptake, %IDKg/g: 1.1847
--
smiles-data: O=C(O)CCSCCCCCCCCCCCCCC[18F]
Drug uptake, %IDKg/g: 0.6292
--
smiles-data: O=C(O)CCCCSCCCCCCCCCCCC[18F]
Drug uptake, %IDKg/g: 1.126
